Every entry's value here was drawn from patent US6387638.

TARGET_UNDER_TEST: ErbB-3 receptor-Ig fusion (homodimer) (human, UniProt P21860 20-643; P21860 20-636)
Sequence (P21860 other isoform, or with tags, fused parts or gaps): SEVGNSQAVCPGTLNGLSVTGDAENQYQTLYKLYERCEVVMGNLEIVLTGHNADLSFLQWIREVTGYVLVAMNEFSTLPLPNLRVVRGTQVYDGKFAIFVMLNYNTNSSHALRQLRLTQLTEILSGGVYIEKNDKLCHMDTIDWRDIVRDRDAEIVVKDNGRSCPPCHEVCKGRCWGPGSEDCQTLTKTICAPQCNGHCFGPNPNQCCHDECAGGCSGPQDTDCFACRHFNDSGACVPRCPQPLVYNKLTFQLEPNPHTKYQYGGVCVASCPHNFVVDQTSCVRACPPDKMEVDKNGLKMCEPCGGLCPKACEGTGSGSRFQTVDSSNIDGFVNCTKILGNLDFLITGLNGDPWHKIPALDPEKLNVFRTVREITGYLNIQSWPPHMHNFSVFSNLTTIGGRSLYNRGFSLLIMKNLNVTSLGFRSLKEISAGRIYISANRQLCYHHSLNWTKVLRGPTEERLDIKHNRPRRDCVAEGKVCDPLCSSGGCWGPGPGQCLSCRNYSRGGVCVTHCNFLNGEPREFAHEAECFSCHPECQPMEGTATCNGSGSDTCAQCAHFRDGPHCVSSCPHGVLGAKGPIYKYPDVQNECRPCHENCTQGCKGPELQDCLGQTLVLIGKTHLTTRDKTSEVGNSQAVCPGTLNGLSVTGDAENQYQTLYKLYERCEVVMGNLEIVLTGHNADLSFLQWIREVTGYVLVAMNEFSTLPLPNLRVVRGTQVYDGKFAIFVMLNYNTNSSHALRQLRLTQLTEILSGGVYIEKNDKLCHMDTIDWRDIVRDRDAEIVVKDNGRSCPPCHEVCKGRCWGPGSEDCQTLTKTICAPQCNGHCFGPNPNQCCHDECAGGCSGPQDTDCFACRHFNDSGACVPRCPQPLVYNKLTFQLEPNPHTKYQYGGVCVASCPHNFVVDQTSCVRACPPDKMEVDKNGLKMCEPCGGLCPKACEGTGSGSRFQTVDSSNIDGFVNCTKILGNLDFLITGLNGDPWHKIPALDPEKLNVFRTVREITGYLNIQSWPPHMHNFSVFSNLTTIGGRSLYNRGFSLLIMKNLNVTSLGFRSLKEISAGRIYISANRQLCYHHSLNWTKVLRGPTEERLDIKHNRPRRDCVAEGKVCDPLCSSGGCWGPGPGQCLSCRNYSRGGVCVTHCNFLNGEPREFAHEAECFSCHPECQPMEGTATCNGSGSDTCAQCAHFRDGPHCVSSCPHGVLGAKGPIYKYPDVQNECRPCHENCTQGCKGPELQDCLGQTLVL
METHOD: displacement of 125I-HRG-β1 177-244 from plate-bound ErbB-3-Ig
PROPERTY_NAME: EC50 (µM)
Just the number in µM, nothing appended.

The following binders have reported results that may help.
Trx-HRG-β1 146-244 P205A fusion (soluble) (ligand) AYVSSESPIRISVSTEGANTSSSTSTSTTGTSHLVKCAEKEKTFCVNGGECFMVKDLSNASRYLCKCPNEFTGDRCQNYVMASFYKHLGIEFMEAEELY
0.0395
Trx-HRG-β1 146-244 G193A fusion (soluble) (ligand) AYVSSESPIRISVSTEGANTSSSTSTSTTGTSHLVKCAEKEKTFCVNAGECFMVKDLSNPSRYLCKCPNEFTGDRCQNYVMASFYKHLGIEFMEAEELY
0.0269

Lookup: Name the recorded EC50 for Trx-HRG-β1 146-244 R207A fusion (soluble) (ligand) AYVSSESPIRISVSTEGANTSSSTSTSTTGTSHLVKCAEKEKTFCVNGGECFMVKDLSNPSAYLCKCPNEFTGDRCQNYVMASFYKHLGIEFMEAEELY .
Found: 0.245
